Readings of switch fluorescence ratio for the listed sequences
system: ATP; experiment: switch fluorescence ratio, 500 uM ATP over buffer (Cy3 cluster intensity, sum of 5 cycles each) (fold (ratio)); higher = stronger signal-on switching upon ATP binding; sequences stand for … in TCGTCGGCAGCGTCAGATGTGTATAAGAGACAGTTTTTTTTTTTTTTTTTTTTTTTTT…TC; conditions: aptamer strand: ATP DNA aptamer (quencher-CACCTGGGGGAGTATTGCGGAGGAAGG + anchor), 100 nM annealed; ATP concentration: 500 uM;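 note: ATP exposure 15 min at 22 °C before imaging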

Indicate the recorded switch fluorescence ratio value for this sequence: `ATGAGTCTTT`
0.98

Return value of switch fluorescence ratio for input `ATAGAGTGGG` , no commentary.
0.966

For the sequence `ACCGGTTTTC` , report switch fluorescence ratio.
0.984

Give a short answer stating reported switch fluorescence ratio for `TAAGGGGCGT` .
1.03

Given `CTAATTTTTT` , respond with its switch fluorescence ratio.
1.01

We next turn to a different sequence, shown below.
Provide one value: measured switch fluorescence ratio of `GCTCAAGCTA`
1.15

====

Examples of sequences with documented switch fluorescence ratio follow.
system: ATP; assay: switch fluorescence ratio, 500 uM ATP over buffer (Cy3 cluster intensity, sum of 5 cycles each) (fold (ratio)); higher = stronger signal-on switching upon ATP binding; sequences stand for … in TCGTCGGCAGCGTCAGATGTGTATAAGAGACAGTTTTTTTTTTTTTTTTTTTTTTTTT…TC; conditions: aptamer strand: ATP DNA aptamer (quencher-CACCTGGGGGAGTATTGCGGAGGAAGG + anchor), 100 nM annealed; ATP concentration: 500 uM;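 note: ATP exposure 15 min at 22 °C before imaging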
Give the value as a plain number.

Specify the recorded switch fluorescence ratio for `GGGTTTGCCT` , system: ATP.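 Note: ATP exposure 15 min at 22 °C before imaging.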
1.02

Name the recorded switch fluorescence ratio of `CGGAACCGGG` , assay system ATP.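 Note: ATP exposure 15 min at 22 °C before imaging.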
1.03

Enter measured switch fluorescence ratio, system ATP, for the sequence shown: `TGGGGCCCCG`;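 note: ATP exposure 15 min at 22 °C before imaging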
1

Please look at `ATATGCGGGT` and tell me its recorded switch fluorescence ratio on ATP.
0.985

State switch fluorescence ratio on ATP. Entry: `ATGAGGGCAG`
0.993

====

switch fluorescence ratio for assorted sequences
tested on: ATP; experiment: switch fluorescence ratio, 500 uM ATP over buffer (Cy3 cluster intensity, sum of 5 cycles each) (fold (ratio)); higher = stronger signal-on switching upon ATP binding; sequences stand for … in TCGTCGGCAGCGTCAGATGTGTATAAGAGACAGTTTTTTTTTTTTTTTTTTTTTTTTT…TC; conditions: aptamer strand: ATP DNA aptamer (quencher-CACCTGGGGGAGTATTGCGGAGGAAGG + anchor), 100 nM annealed; ATP concentration: 500 uM;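 note: ATP exposure 15 min at 22 °C before imaging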
Output: the number by itself.

Supply measured switch fluorescence ratio of `GTGTTCATGG` in your reply.
1

Write down switch fluorescence ratio measured for item `TTGGAATTCC`
0.989

Using the record for `GGGGCGGGAG` , state its measured switch fluorescence ratio.
1.03

---
Read off the recorded switch fluorescence ratio for `TCGGGATCCT`
1.35

Return value of switch fluorescence ratio for input `TTTAGTTCCG` , no commentary.
0.935

Recall and state the measured switch fluorescence ratio for `AGGTGCTGGG` .
1.03

Specify switch fluorescence ratio for `ATTCGTATAT` and stop.
0.969

// fetch switch fluorescence ratio given entry `ATCCTTGCG`
1.02

Provide one value: measured switch fluorescence ratio of `AAAAAAAATG`
0.999
